melting point values for the compounds below.

These recorded examples may help you get a feel for the data.
- compound: "CCOCc1nc2c(N)nc3cc(-c4cccnc4)ccc3c2n1CCNC(=O)C(C)C"
  melting point: "213 to 215 °C"
- compound: "Cn1cc(C(N)=O)c(Nc2ccc(Cl)c(Cl)c2)cc1=O"
  melting point: "> 250 °C"
- compound: "CC(=O)Nc1ccc(C(=O)N2CC3CNCC(C3)C2)cc1"
  melting point: "186 to 189 °C"
- compound: "CC1CCN(c2nccc(Oc3ccc(NC(=O)c4cc(F)cc(N5CCCCC5)c4)c4ccccc34)n2)CC1"
  melting point: "145 to 146 °C"
- compound: "O=C1CCCc2ccccc2N1Cc1cccc(Br)c1"
  melting point: "81 to 82 °C"

Attention now shifts to the item below.
[in] Give its melting point value. Item: Cc1c(C(=O)C2CSC(c3cccnc3)N2)c2ccccc2n1C(=O)N(C)C (stereo unspecified)
[out] 130 to 132 °C

====

melting point values for the molecules below.

- molecule: "CC(C)c1ccc(CCOc2ccnc3c(F)cccc23)cc1"
  melting point: "56 to 60 °C"
- molecule: "COc1ccc(C(=O)NCCCC(=O)O)cc1OCc1ccccc1"
  melting point: "156 to 158 °C"
- molecule: "COC(=O)ON=C(N)c1ccc(C(=O)OC(C)(C)C)cc1"
  melting point: "157 to 159 °C"
- molecule: "CCCc1nc2c(N)nc3ccccc3c2s1"
  melting point: "140 to 142 °C"
- molecule: "CN1CC(CCCl)Sc2ncccc2C1=S (centres undefined)"
  melting point: "160 to 162 °C"
- molecule: "CCOC(=O)C1=C(C)NC(C)=C(C(=O)OCC)C1c1ccc(Cl)cc1Cl"
  melting point: "148 to 149 °C"

[in] Give its melting point value. Item: Cc1nc2ccccc2c(N)c1C(C)O (centres undefined)
[out] 214 °C

[in] Give its melting point value. Item: `CCCCCCN=C=O`
[out] 68 to 72 °C

[in] Give its melting point value. Item: `Nc1ccccc1C1=NN(c2ccc(Cl)cc2)C(=O)C1`
[out] 199 to 201 °C

====

melting point values for the compounds below.

- cpdSmiles: "CCOC(=O)c1cc(NCc2ccccc2)c(OCC(F)(F)F)c(S(N)(=O)=O)c1"
  melting point: "163 to 165 °C"
- cpdSmiles: "COCC(COC)(Cc1ccccc1)Cc1ccccc1"
  melting point: "95 °C"

Attention now shifts to the item below.
[in] Give its melting point value. Item: `COc1c(C(N)=O)nnn1Cc1ccccc1Cl`
[out] 185 to 187 °C

====

reportedProperty: melting point

These recorded examples may help you get a feel for the data.
- cpdSmiles: "COc1cc(C(=O)c2ccnc3ccccc23)cc([N+](=O)[O-])c1O"
  testResult: "246 to 248 °C"
- cpdSmiles: "CC1(C)CC(=C(c2ccc(O)cc2)c2ccc(S(C)(=O)=O)cc2)CC(C)(C)C1"
  testResult: "149 to 150 °C"
- cpdSmiles: "O=Cc1c[nH]c2c1ccc1c3cc([N+](=O)[O-])ccc3[nH]c12"
  testResult: "> 250 °C"

Attention now shifts to the item below.
[in] Give its melting point value. Item: `CCCOc1cc(-c2ccc3c(c2)C=C(C(=O)Nc2ccc(CN(C)C4CCOCC4)cc2)CCS3(=O)=O)ccc1C#N`
[out] 201 to 203 °C
